- System: HEK-293T
- PROTOCOL SUMMARY: Multiplex assay against HEK293T
- Assay type: toxicity, cell-based
- CONDITION: human, 12 h, 10 µM, compound concentration 10 uM, replicate 2
READOUT KIND: Population Apoptotic (%)

* CC(C)N1CCC(C)(C)c2cc(C#Cc3ccc(C(=O)O)cc3)ccc21 | 16%
* CCOc1cc2ncc(C#N)c(Nc3ccc(OCc4cccc(F)c4)c(Cl)c3)c2cc1NC(=O)/C=C/CN(C)C [HKI-357] | 14%
* Nc1ccc(C(=O)Nc2cccc(-c3nc(N4CCOCC4)c4oc5ncccc5c4n3)c2)cn1 | 53%
* N#Cc1cnc(Nc2cc(NC[C@H]3CNCCO3)c(C(F)(F)F)cn2)cn1 [SRA-737] | 13%
* CCCn1c(=O)c2[nH]c(C34CC5CC(CC3C5)C4)nc2n(CCC)c1=O [ROLOFYLLINE] | 41%
* CNc1oc(-c2cccc3ccccc23)nc1C#N | 25%
* Cc1nc(Cc2cccc(C(F)(F)F)c2)sc1-c1ccc(C(N)=O)nc1 [TP-024n] | 25%
* c1ccc2oc(-c3csc(C4CCN(Cc5nc6ncccc6[nH]5)CC4)n3)cc2c1 | 12%
* CC(C)(C)c1cnc(CSc2cnc(NC(=O)C3CCNCC3)s2)o1 [BMS-387032] | 24%
* CCOc1cc(N2CCC(O)CC2)ccc1Nc1ncc2c(n1)N(C1CCCC1)CCC(=O)N2C | 8%
